Origin of measurements: ChEMBL document CHEMBL1148153

- Tested on: Human immunodeficiency virus 1
- test.protocol: Antiviral activity against HIV1 3B infected in human HOG.R5 cells after 4 days
- Format: functional, organism-based
- experimental.parameters: Human immunodeficiency virus 1, 3B, HOG.R5, 96 h
value.type: IC50 (µM)
Please give a number only; it is taken to be in µM.

### Prompt Quick check: IC50 of C=C(C)[C@@H]1CC[C@]2(C(=O)O)CC[C@]3(C)[C@H](CC[C@@H]4[C@@]5(C)CC[C@H](OC(=O)/C=C\c6ccc(O)c(OC)c6)C(C)(C)[C@@H]5CC[C@]43C)[C@@H]12 ?
### Response 11.1

### Prompt What do you get for C=C(C)[C@@H]1CC[C@]2(C(=O)O)CC[C@]3(C)[C@H](CC[C@@H]4[C@@]5(C)CC[C@H](OC(=O)/C=C/c6ccc(O)c(OC)c6)C(C)(C)[C@@H]5CC[C@]43C)[C@@H]12 ?
### Response 5.1

### Prompt And for Cc1c(O)cccc1C(=O)N[C@@H](CSc1ccccc1)[C@H](O)CN1C[C@H]2CCCC[C@H]2C[C@H]1C(=O)NC(C)(C)C ?
### Response 0.09

### Prompt Please answer likewise for C=C(C)[C@@H]1CC[C@]2(C(=O)O)CC[C@]3(C)[C@H](CC[C@@H]4[C@@]5(C)CC[C@H](OC(=O)/C=C/c6ccc(O)cc6)C(C)(C)[C@@H]5CC[C@]43C)[C@@H]12
### Response 5.6

### Prompt Now the compound CC(C)Nc1cccnc1N1CCN(C(=O)c2cc3cc(NS(C)(=O)=O)ccc3[nH]2)CC1.CS(=O)(=O)O [DELAVIRDINE MESYLATE]
### Response 0.02

----------
- test.protocol: Cytotoxicity against human HOG.R5 cells at 40 ug/ml after 4 days
- Format: cell-based
- experimental.parameters: 96 h
value.type: Activity

> print(dat)
                                   molecule  observed.value
1       Nc1ccn([C@@H]2CS[C@H](CO)O2)c(=O)n1       Non-toxic
2  CCCc1cc(=O)oc2c3c(c4c(c12)OC(C)(C)C=C4)O[C@H](C)[C@@H](C)[C@@H]3O [CALANOLIDE A]       Non-toxic
3  Cc1c(O)cccc1C(=O)N[C@@H](CSc1ccccc1)[C@H](O)CN1C[C@H]2CCCC[C@H]2C[C@H]1C(=O)NC(C)(C)C       Non-toxic
4  CC(C)Nc1cccnc1N1CCN(C(=O)c2cc3cc(NS(C)(=O)=O)ccc3[nH]2)CC1.CS(=O)(=O)O [DELAVIRDINE MESYLATE]       Non-toxic

----------
- Test system: Lu1
- test.protocol: Cytotoxicity against human Lu1 cells
- Assay type: functional
- experimental.parameters: read-out: ED50 (the source's name)
For each of the molecules below, state its pEC50.
A value of pEC50 is the negative decimal logarithm of a concentration given in moles per litre.

### Prompt Quick one: pEC50 for C=C(C)[C@@H]1CC[C@]2(C(=O)O)CC[C@]3(C)[C@H](CC[C@@H]4[C@@]5(C)CC[C@H](OC(=O)/C=C\c6ccc(O)cc6)C(C)(C)[C@@H]5CC[C@]43C)[C@@H]12 ?
### Response 4.96

### Prompt Next molecule up: C=C(C)[C@@H]1CC[C@]2(C(=O)O)CC[C@]3(C)[C@H](CC[C@@H]4[C@@]5(C)CC[C@H](OC(=O)/C=C\c6ccc(O)c(OC)c6)C(C)(C)[C@@H]5CC[C@]43C)[C@@H]12
### Response 4.80

### Prompt What would you report for C=C(C)[C@@H]1CC[C@]2(C(=O)O)CC[C@]3(C)[C@H](CC[C@@H]4[C@@]5(C)CC[C@H](O)C(C)(C)[C@@H]5CC[C@]43C)[C@@H]12 ?
### Response 4.39

### Prompt // repeat for C=C(C)[C@@H]1CC[C@]2(C(=O)O)CC[C@]3(C)[C@H](CC[C@@H]4[C@@]5(C)CC[C@H](OC(=O)/C=C/c6ccc(O)c(OC)c6)C(C)(C)[C@@H]5CC[C@]43C)[C@@H]12 and report
### Response 5.07

### Prompt Likewise for C=C(C)[C@@H]1CC[C@]2(C(=O)O)CC[C@]3(C)[C@H](CC[C@@H]4[C@@]5(C)CC[C@H](OC(=O)/C=C/c6ccc(O)cc6)C(C)(C)[C@@H]5CC[C@]43C)[C@@H]12 ?
### Response 4.92
